The entries below come with measured protein stability index values attached.
Test system: Saccharomyces cerevisiae
Assay: protein stability index of tFT-peptide fusion (C-terminal peptide) (PSI (0-1 scale)); higher = more stable (slower turnover)
Conditions: genetic background: wild type; temperature: 30 C
ASSAY METRIC: protein stability index

{"SEQUENCE DATA": "CINCSRFIHNIN [YMR230W-A C-terminal 12 aa]", "ENDPOINT RESULT": 0.304}
{"SEQUENCE DATA": "LSTLGVGAAIIS [AVT1 C-terminal 12 aa]", "ENDPOINT RESULT": 0.675}
{"SEQUENCE DATA": "YVSHKGFIVEDM [RPL9B C-terminal 12 aa]", "ENDPOINT RESULT": 0.693}
{"SEQUENCE DATA": "DVDLTKSGGFKT [CKB2 C-terminal 12 aa]", "ENDPOINT RESULT": 0.714}
{"SEQUENCE DATA": "SPVPTKKKGFLR [CDC3 C-terminal 12 aa]", "ENDPOINT RESULT": 0.684}
{"SEQUENCE DATA": "GSPNSLLLNIGR [PHB1 C-terminal 12 aa]", "ENDPOINT RESULT": 0.719}
{"SEQUENCE DATA": "LSQIVDIWNKDI [MNT2 C-terminal 12 aa]", "ENDPOINT RESULT": 0.79}
{"SEQUENCE DATA": "PHYAGCLEDIIF [YER066C-A C-terminal 12 aa]", "ENDPOINT RESULT": 0.74}
{"SEQUENCE DATA": "GQIVIVHYLYDR [YOR218C C-terminal 12 aa]", "ENDPOINT RESULT": 0.445}
{"SEQUENCE DATA": "TKKLLRDYFSQF [SMN1 C-terminal 12 aa]", "ENDPOINT RESULT": 0.188}
{"SEQUENCE DATA": "EIKCCHNGRALK [SAT4 C-terminal 12 aa]", "ENDPOINT RESULT": 0.697}
{"SEQUENCE DATA": "PLLELVMELRDR [MOB1 C-terminal 12 aa]", "ENDPOINT RESULT": 0.736}

---

Test system: Saccharomyces cerevisiae
Assay: protein stability index of tFT-peptide fusion (C-terminal peptide) (PSI (0-1 scale)); higher = more stable (slower turnover)
Details: genetic background: das1 deletion; temperature: 37 C
The entries below come with measured protein stability index values attached.
ASSAY METRIC: protein stability index

{"SEQUENCE DATA": "YGWGFLFILTLM", "ASSAY METRIC": "protein stability index", "ENDPOINT RESULT": 0.317}
{"SEQUENCE DATA": "HCNRLIFWYKCT", "ASSAY METRIC": "protein stability index", "ENDPOINT RESULT": 0.723}
{"SEQUENCE DATA": "VTFCFLFVWFLV", "ASSAY METRIC": "protein stability index", "ENDPOINT RESULT": 0.413}
{"SEQUENCE DATA": "FCFFSMGFVLAL", "ASSAY METRIC": "protein stability index", "ENDPOINT RESULT": 0.45}
{"SEQUENCE DATA": "GLYMCSVGCWFR", "ASSAY METRIC": "protein stability index", "ENDPOINT RESULT": 0.281}
{"SEQUENCE DATA": "GCGWVFWVVDWG", "ASSAY METRIC": "protein stability index", "ENDPOINT RESULT": 0.563}
{"SEQUENCE DATA": "LFPLFTLIFVHL", "ASSAY METRIC": "protein stability index", "ENDPOINT RESULT": 0.417}
{"SEQUENCE DATA": "RVGGVVVLGCVG", "ASSAY METRIC": "protein stability index", "ENDPOINT RESULT": 0.684}
{"SEQUENCE DATA": "FVVSCLSWVFLF", "ASSAY METRIC": "protein stability index", "ENDPOINT RESULT": 0.542}
{"SEQUENCE DATA": "VFCSVGVSLFFG", "ASSAY METRIC": "protein stability index", "ENDPOINT RESULT": 0.514}

---

Tested on: Saccharomyces cerevisiae
Experiment: protein stability index of tFT-peptide fusion (C-terminal peptide) (PSI (0-1 scale)); higher = more stable (slower turnover)
Conditions: genetic background: wild type; temperature: 30 C
ASSAY METRIC: protein stability index

{"SEQUENCE DATA": "EAERDEAQRRCA", "ENDPOINT RESULT": 0.686}
{"SEQUENCE DATA": "KKKEKTSEEKKK", "ENDPOINT RESULT": 0.701}
{"SEQUENCE DATA": "LPERASQARGRP", "ENDPOINT RESULT": 0.694}
{"SEQUENCE DATA": "HRCQRGLIARPR", "ENDPOINT RESULT": 0.665}
{"SEQUENCE DATA": "EKKRERRRERKE", "ENDPOINT RESULT": 0.65}
{"SEQUENCE DATA": "PLLPPALPASPF", "ENDPOINT RESULT": 0.697}
{"SEQUENCE DATA": "SAEKKRAKCERR", "ENDPOINT RESULT": 0.68}
{"SEQUENCE DATA": "HSLRLPPSVHFP", "ENDPOINT RESULT": 0.68}
{"SEQUENCE DATA": "PPPPLFLIVLHL", "ENDPOINT RESULT": 0.434}
{"SEQUENCE DATA": "GGGGGGGGYLGA", "ENDPOINT RESULT": 0.715}
{"SEQUENCE DATA": "QPRVEYSSYWAV", "ENDPOINT RESULT": 0.644}
{"SEQUENCE DATA": "PKSGPDQPQPPG", "ENDPOINT RESULT": 0.591}
{"SEQUENCE DATA": "TPPPNTPSPLTI", "ENDPOINT RESULT": 0.654}
{"SEQUENCE DATA": "KREEKKTKRKKK", "ENDPOINT RESULT": 0.712}
{"SEQUENCE DATA": "PSPPSPPPAPPP", "ENDPOINT RESULT": 0.643}
{"SEQUENCE DATA": "ISWCPRHPFSSD", "ENDPOINT RESULT": 0.752}
{"SEQUENCE DATA": "TAFGLMRQPCMG", "ENDPOINT RESULT": 0.657}
{"SEQUENCE DATA": "GLASLTGVPRCW", "ENDPOINT RESULT": 0.723}
{"SEQUENCE DATA": "PPSSPLRRRTTS", "ENDPOINT RESULT": 0.725}
